Reported pIC50 values for a set of compounds
# Test system: HT-29 cells
# Method Summary: HT-29 necroptosis cell viability assay (TNF-α/SMAC mimetic/zVAD-FMK, CellTiter-Glo)
# Format: cell-based
# Condition: Homo sapiens, HT-29, HT-29 necroptosis cell viability, IC50 class symbols; read-out: Activity
pIC50: −log10 of the molar value.
Metric Name: pIC50

>>> reported_value("C[C@H]1[C@@H](O)CN1c1cc(Oc2ccc(-n3nc4n(c3=O)[C@H](c3ccccc3)CC4)cc2F)c(F)cn1 (single isomer, unassigned)")
"> 7.00"
>>> reported_value("Cc1nc(C(C)(C)O)sc1Oc1ccc(-n2ncn(Cc3ncccc3Cl)c2=O)cc1F")
"> 7.00"
>>> reported_value("COC1(C#N)CN(c2cc(Oc3ccc(-n4ncn(Cc5c(F)cccc5F)c4=O)cc3F)ccn2)C1")
"> 7.00"
>>> reported_value("O=c1n(Cc2c(F)cccc2F)cnn1-c1ccc(Oc2ccnc(NC3CC(F)(F)C3)c2)cc1")
"6.00 to 7.00"
>>> reported_value("C[C@H]1C[C@@H](NC(=O)OC(C)(C)C)CN1c1cc(Oc2ccc(-n3ncn(Cc4c(F)cccc4F)c3=O)cc2F)ccn1")
"6.00 to 7.00"
>>> reported_value("O=c1n(Cc2c(F)cccc2F)cnn1-c1ccc(Oc2ccnc(NC34CC(C3)C4)c2)cc1")
"6.00 to 7.00"
>>> reported_value("Cc1nc(C(C)(C)O)sc1Oc1ccc(-n2ncn(Cc3c(F)cccc3F)c2=O)cc1F")
"> 7.00"
>>> reported_value("CC1(C#N)CN(c2cc(Oc3ccc(-n4ncn(Cc5c(F)cccc5F)c4=O)cc3)ccn2)C1")
"> 7.00"
>>> reported_value("COc1cc(Oc2ccc(-n3ncn(Cc4c(F)cccc4F)c3=O)cc2)cc(OC)n1")
"6.00 to 7.00"
>>> reported_value("CCOC1CN(c2cc(Oc3ccc(-n4ncn(Cc5c(F)cccc5F)c4=O)cc3)ccn2)C1")
"> 7.00"
>>> reported_value("NC1CC2(C1)CC(Nc1cc(Oc3ccc(-n4ncn(Cc5c(F)cccc5F)c4=O)cc3)ccn1)C2 (centres unmarked)")
"6.00 to 7.00"
>>> reported_value("Cc1c(C#N)noc1Oc1ccc(-n2ncn(Cc3c(F)cccc3F)c2=O)cc1F")
"> 7.00"
>>> reported_value("C[C@H]1CCCN1c1cc(Oc2ccc(-n3ncn(Cc4c(F)cccc4F)c3=O)cc2)ccn1")
"> 7.00"
>>> reported_value("CCCOC1CN(c2cc(Oc3ccc(-n4ncn(Cc5c(F)cccc5F)c4=O)cc3)ccn2)C1")
"> 7.00"

###

Reported pIC50 values for a set of compounds
# Test system: HT-29 cells
# Method Summary: HT-29 necroptosis cell viability assay (TNF-α/SMAC mimetic/zVAD-FMK, CellTiter-Glo)
# Format: cell-based
# Condition: Homo sapiens, HT-29, HT-29 necroptosis cell viability, IC50 class symbols; read-out: Activity
pIC50: −log10 of the molar value.
Metric Name: pIC50

>>> reported_value("C[C@H]1[C@H](N)CN1c1cc(Oc2ccc(-n3ncn(Cc4c(F)cccc4F)c3=O)cc2F)c(F)cn1 [Example 377]")
"> 7.00"
>>> reported_value("O=c1n(Cc2c(F)cccc2F)cnn1-c1ccc(Oc2ccccc2[N+](=O)[O-])cc1 [Example 433]")
"6.00 to 7.00"
>>> reported_value("Cc1cnc(N2CC(C)(C#N)C2)nc1Oc1ccc(-n2ncn(Cc3c(F)cccc3F)c2=O)cc1F [Example 225]")
"6.00 to 7.00"
>>> reported_value("CC(=O)c1nc(C)c(Oc2ccc(-n3ncn(Cc4c(F)cccc4F)c3=O)cc2F)s1 [Example 449]")
"> 7.00"

###

# Test system: HT-29 cells
# Method Summary: HT-29 necroptosis cell viability assay (TNF-α/SMAC mimetic/zVAD-FMK, CellTiter-Glo)
# Type: cell-based
# Condition: Homo sapiens, HT-29, HT-29 necroptosis cell viability, IC50 class symbols; read-out: Activity
pIC50: −log10 of the molar value.
Metric Name: pIC50

>>> reported_value("C[C@H]1[C@@H](C#N)CN1c1nccc(Oc2ccc(-n3ncn(Cc4c(F)cccc4F)c3=O)cc2)c1F")
"> 7.00"
>>> reported_value("O=c1n(-c2ccc(Oc3ccncc3)cc2)nc(Cl)n1Cc1ccccc1")
"6.00 to 7.00"
>>> reported_value("C[C@H]1[C@H](C#N)CN1c1cc(Oc2ccc(-n3ncn(Cc4c(F)cccc4F)c3=O)cc2F)c(F)cn1")
"> 7.00"
>>> reported_value("O=c1n(Cc2c(F)cccc2F)cnn1-c1ccc(Oc2cc(N3CC4(CCCN4)C3)ncc2Cl)c(F)c1")
"6.00 to 7.00"
>>> reported_value("Cc1cnc(N2CC(C)(C#N)C2)cc1Oc1ccc(-n2ncn(Cc3c(F)cccc3F)c2=O)cc1F")
"> 7.00"
>>> reported_value("O=c1n(Cc2c(F)cccc2F)cnn1-c1ccc(Oc2ccnc(NCC3CCC3)c2)cc1")
"6.00 to 7.00"
>>> reported_value("N#CC12CC(Nc3cc(Oc4ccc(-n5ncn(Cc6c(F)cccc6F)c5=O)cc4)c(Cl)cn3)(C1)C2")
"> 7.00"
>>> reported_value("N#CC1(CO)CN(c2cc(Oc3ccc(-n4ncn(Cc5c(F)cccc5F)c4=O)cc3)ccn2)C1")
"6.00 to 7.00"
>>> reported_value("CC(C)(C)OC(=O)NC(C)(C)C1CN(c2cc(Oc3ccc(-n4ncn(Cc5c(F)cccc5F)c4=O)cc3F)c(F)cn2)C1")
"> 7.00"
>>> reported_value("C[C@H]1[C@H](NC(=O)OC(C)(C)C)CN1c1cc(Oc2ccc(-n3ncn(Cc4c(F)cccc4F)c3=O)cc2F)c(F)cn1")
"> 7.00"
>>> reported_value("CC(C)OC1CN(c2cccc(Oc3ccc(-n4ncn(Cc5c(F)cccc5F)c4=O)cc3)n2)C1")
"> 7.00"
>>> reported_value("N#C[C@H]1CCN(c2cc(Oc3ccc(-n4ncn(Cc5c(F)cccc5F)c4=O)cc3)ccn2)C1")
"> 7.00"
>>> reported_value("C[C@H]1C[C@H](N)CN1c1cc(Oc2ccc(-n3ncn(Cc4c(F)cccc4F)c3=O)cc2)ccn1")
"> 7.00"
>>> reported_value("N#CC1CCCN(c2cc(Oc3ccc(-n4ncn(Cc5c(F)cccc5F)c4=O)cc3)ccn2)C1 (stereo not drawn)")
"6.00 to 7.00"
>>> reported_value("CCOC1CN(c2cc(Oc3ccc(-n4ncn(Cc5c(F)cccc5F)c4=O)cc3Cl)c(Cl)cn2)C1")
"> 7.00"

###

Reported IC50 values for a set of compounds
# System: HT-29 cells
# Method Summary: HT-29 necroptosis cell viability assay (TNF-α/SMAC mimetic/zVAD-FMK, CellTiter-Glo)
# Assay type: cell-based
# Condition: Homo sapiens, HT-29, HT-29 necroptosis cell viability, IC50 class symbols; read-out: Activity
Metric Name: IC50

>>> reported_value("N#CC12CC(Nc3cc(Oc4ccc(-n5ncn(Cc6c(F)cccc6F)c5=O)cc4F)c(Cl)cn3)(C1)C2")
"< 100 nM"
>>> reported_value("Cc1nc(N)sc1Sc1ccc(-n2ncn(Cc3ccccc3)c2=O)cc1")
"< 100 nM"
>>> reported_value("N#CC12CC(Nc3nccc(Oc4ccc(-n5ncn(Cc6c(F)cccc6F)c5=O)cc4Cl)c3Cl)(C1)C2")
"100 to 1000 nM"

###

# Test system: HT-29 cells
# Method Summary: HT-29 necroptosis cell viability assay (TNF-α/SMAC mimetic/zVAD-FMK, CellTiter-Glo)
# Assay type: cell-based
# Condition: Homo sapiens, HT-29, HT-29 necroptosis cell viability, IC50 class symbols; read-out: Activity
Reported IC50 values for a set of compounds
Metric Name: IC50

>>> reported_value("CC1(C#N)CCN(c2nccc(Oc3ccc(-n4ncn(Cc5c(F)cccc5F)c4=O)cc3)c2F)C1 (stereo not shown)")
"< 100 nM"
>>> reported_value("N#CC1CN(c2cc(Oc3ccc(-n4ncn(Cc5c(F)cccc5F)c4=O)cc3)ccn2)C1")
"100 to 1000 nM"
>>> reported_value("CC1(C#N)CN(c2cccnc2OCc2ccc(-n3ncn(Cc4c(F)cccc4F)c3=O)cc2)C1")
"100 to 1000 nM"
>>> reported_value("COC1(C#N)CN(c2cc(Oc3ccc(-n4ncn(Cc5c(F)cccc5F)c4=O)cc3Cl)ccn2)C1")
"< 100 nM"

###

# Tested on: HT-29 cells
# Method Summary: HT-29 necroptosis cell viability assay (TNF-α/SMAC mimetic/zVAD-FMK, CellTiter-Glo)
# Format: cell-based
# Condition: Homo sapiens, HT-29, HT-29 necroptosis cell viability, IC50 class symbols; read-out: Activity
pIC50: −log10 of the molar value.
Reported pIC50 values for a set of molecules
Metric Name: pIC50

>>> reported_value("CC1C(C#N)CN1c1nccc(Oc2ccc(-n3ncn(Cc4c(F)cccc4F)c3=O)cc2)c1F (stereo not drawn)")
"> 7.00"
>>> reported_value("Cc1c(C(C)(C)O)noc1Oc1ccc(-n2ncn(Cc3c(F)cccc3F)c2=O)cc1F")
"6.00 to 7.00"
>>> reported_value("Cc1nc(C(N)C(F)F)sc1Oc1ccc(-n2ncn(Cc3c(F)cccc3F)c2=O)cc1F (stereo not drawn)")
"> 7.00"
>>> reported_value("Cc1nc(N2CC(C)(N)C2)sc1Oc1ccc(-n2ncn(Cc3c(F)cccc3F)c2=O)cc1F")
"> 7.00"
>>> reported_value("Nc1cccc(F)c1Oc1ccc(-n2ncn(Cc3c(F)cccc3F)c2=O)cc1")
"> 7.00"
>>> reported_value("O=c1n(-c2ccc(Oc3ccccc3)cc2)nc2n1C(c1ccccc1)CC2 (stereo not drawn)")
"> 7.00"
>>> reported_value("Cc1nc(C(C)(C)O)sc1Oc1ccc(-n2ncn(Cc3cc(Cl)ccn3)c2=O)cc1F")
"5.00 to 6.00"
>>> reported_value("Cc1nc(C(C)O)sc1Oc1ccc(-n2ncn(Cc3c(F)cccc3F)c2=O)cc1 (racemic)")
"> 7.00"
>>> reported_value("COC1(C#N)CN(c2cc(Oc3ccc(-n4ncn(Cc5c(F)cccc5F)c4=O)cc3F)c(C)cn2)C1")
"> 7.00"
>>> reported_value("CC1(C#N)CN(c2nccc(Oc3ccc(-n4ncn(Cc5c(F)cccc5F)c4=O)cc3Cl)c2F)C1")
"> 7.00"
>>> reported_value("N#CC12CC(Nc3nccc(Oc4ccc(-n5ncn(Cc6c(F)cccc6F)c5=O)cc4)c3F)(C1)C2")
"6.00 to 7.00"
>>> reported_value("N#CC1CCN(c2cc(Oc3ccc(-n4ncn(Cc5c(F)cccc5F)c4=O)cc3)ccn2)CC1")
"6.00 to 7.00"
>>> reported_value("CN(CC1CCOCC1)c1cc(Oc2ccc(-n3ncn(Cc4c(F)cccc4F)c3=O)cc2)ccn1")
"6.00 to 7.00"
>>> reported_value("CC1CCN(c2cc(Oc3ccc(-n4ncn(Cc5c(F)cccc5F)c4=O)cc3)ccn2)C1 (stereo not drawn)")
"> 7.00"
>>> reported_value("CCOC1CN(c2nccc(Oc3ccc(-n4ncn(Cc5c(F)cccc5F)c4=O)cc3)c2C)C1")
"> 7.00"
>>> reported_value("O=c1n(Cc2c(F)cccc2F)cnn1-c1ccc(Oc2ccnc(NC3CCC3)c2)cc1")
"6.00 to 7.00"
>>> reported_value("Cc1nc(N2CCN(C)CC2)sc1Oc1ccc(-n2ncn(Cc3c(F)cccc3F)c2=O)cc1F")
"> 7.00"
>>> reported_value("CCOC1CN(c2cc(Oc3ccc(-n4ncn(Cc5c(F)cccc5F)c4=O)cc3)c(Cl)cn2)C1")
"> 7.00"
>>> reported_value("C[C@@H]1CN(c2cc(Oc3ccc(-n4ncn(Cc5c(F)cccc5F)c4=O)cc3)ccn2)C[C@H](C)O1")
"6.00 to 7.00"
>>> reported_value("Cc1nc(N2CC(C)(N)C2)sc1Oc1ccc(-n2ncn(Cc3c(F)cccc3F)c2=O)cc1")
"> 7.00"
>>> reported_value("O=c1n(Cc2c(F)cccc2F)cnn1-c1ccc(Oc2cc(N3CC4(COC4)C3)ncc2F)c(F)c1")
"> 7.00"
